Target: GalNAc(a1-3)GalNAc(b1-3)Gal(a1-4)Gal(b1-4)GlcNAc
Assay: glycan array binding signal (z-score within array); higher = stronger binding
Details: glycan notation: IUPAC condensed, linker removed
Many of the other results were omitted from the sample, so the strongest signals are more common in it than they were.
Endpoint label: glycan array binding signal (z-score)
Enter a number only.

Item: CV-2L (Chromobacterium violaceum), Q7NX84 (protein) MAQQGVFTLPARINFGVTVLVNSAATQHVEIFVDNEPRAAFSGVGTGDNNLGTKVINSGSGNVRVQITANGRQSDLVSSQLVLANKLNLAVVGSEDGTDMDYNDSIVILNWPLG | glycan array binding signal (z-score): -0.306

Item: BC2LB (Burholderia cenocepacia), B4EH85_BURCJ (protein) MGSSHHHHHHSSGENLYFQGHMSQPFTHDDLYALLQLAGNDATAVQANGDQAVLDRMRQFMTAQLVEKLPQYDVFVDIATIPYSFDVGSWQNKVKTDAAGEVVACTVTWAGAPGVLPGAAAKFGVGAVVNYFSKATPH | glycan array binding signal (z-score): -0.055

Item: CIH1 (Colletotrichum higginsianum) (protein) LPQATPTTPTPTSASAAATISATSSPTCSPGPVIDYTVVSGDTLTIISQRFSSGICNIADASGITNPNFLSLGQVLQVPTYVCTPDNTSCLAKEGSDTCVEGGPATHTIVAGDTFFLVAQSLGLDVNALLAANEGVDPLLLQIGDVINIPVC | glycan array binding signal (z-score): -0.066
